target: CDK7 (Homo sapiens, UniProt P50613); assay: NanoBRET live-cell target engagement, NanoLuc-CDK7 in HEK-293; assay type: binding; details: 10µM; independent experiment 1
Sequence (P50613 whole entry): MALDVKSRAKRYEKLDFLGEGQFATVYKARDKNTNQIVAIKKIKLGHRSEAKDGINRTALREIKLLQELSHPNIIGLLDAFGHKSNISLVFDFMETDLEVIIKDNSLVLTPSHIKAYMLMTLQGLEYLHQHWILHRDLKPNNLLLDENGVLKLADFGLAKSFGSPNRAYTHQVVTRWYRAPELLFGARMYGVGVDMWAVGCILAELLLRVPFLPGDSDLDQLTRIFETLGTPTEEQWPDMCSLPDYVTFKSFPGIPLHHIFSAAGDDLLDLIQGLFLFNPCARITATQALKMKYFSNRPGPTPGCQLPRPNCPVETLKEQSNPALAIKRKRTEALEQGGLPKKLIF
readout: CDK7 Inhibition at 10µM (%)
Return type: number; implicit unit %.

Known CDK7 Inhibition at 10µM (%) results, listed for orientation:
{"columns": ["compound", "unit-tag", "quantitative-readout"],
 "data": [
  ["CN(C)C/C=C/C(=O)Nc1ccc(C(=O)Nc2cccc(Nc3ncc(Cl)c(-c4c[nH]c5ccccc45)n3)c2)cc1 [THZ1]", "%", 70.6],
  ["Cc1c(Br)c(Br)c2c3c1nc(N1CCNCC1)n3CCC2.Cl [SEL 120-34A]", "%", 34.4],
  ["O=C1NC(=NCc2cccs2)S/C1=C\\c1ccc2ncccc2c1 [RO-3306]", "%", 37.4]
]}

Now for another entry.
Req: Find the recorded CDK7 Inhibition at 10µM (%) belonging to O=C1NCCc2[nH]c(-c3ccncc3)cc21 [PHA-767491] and report it.
Resp: 26.2

====

target: CDK15/Cyclin Y (Homo sapiens, UniProt Q96Q40); assay: NanoBRET live-cell target engagement, NanoLuc-CDK15/Cyclin Y in HEK-293; assay type: binding; conditions: CDK15/Y; 10µM; average of replicates; read-out: Inhibition at 10µM (%) Average
Sequence (Q96Q40 whole entry): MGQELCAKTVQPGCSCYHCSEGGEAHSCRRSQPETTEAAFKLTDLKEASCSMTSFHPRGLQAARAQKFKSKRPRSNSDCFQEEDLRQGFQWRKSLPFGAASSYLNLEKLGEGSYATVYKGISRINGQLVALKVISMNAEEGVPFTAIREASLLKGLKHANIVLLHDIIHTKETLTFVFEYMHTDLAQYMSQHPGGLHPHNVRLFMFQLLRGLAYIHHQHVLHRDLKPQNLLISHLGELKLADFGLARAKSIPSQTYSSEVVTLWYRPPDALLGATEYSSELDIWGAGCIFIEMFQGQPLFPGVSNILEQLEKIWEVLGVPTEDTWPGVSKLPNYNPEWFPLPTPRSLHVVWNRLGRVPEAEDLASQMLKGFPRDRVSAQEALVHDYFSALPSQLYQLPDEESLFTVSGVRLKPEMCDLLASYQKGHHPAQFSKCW
Sequence (Q8ND76 whole entry partner): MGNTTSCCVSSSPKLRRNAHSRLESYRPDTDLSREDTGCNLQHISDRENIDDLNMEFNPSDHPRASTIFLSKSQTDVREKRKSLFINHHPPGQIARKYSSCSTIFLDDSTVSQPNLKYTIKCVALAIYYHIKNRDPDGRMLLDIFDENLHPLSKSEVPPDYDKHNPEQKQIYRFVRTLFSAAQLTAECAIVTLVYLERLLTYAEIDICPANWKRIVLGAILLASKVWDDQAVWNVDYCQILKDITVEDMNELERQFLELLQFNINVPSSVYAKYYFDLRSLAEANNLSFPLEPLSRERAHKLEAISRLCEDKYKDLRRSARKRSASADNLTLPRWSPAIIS
In this section we review reported inhibition at 10 µM values for a set of compounds.
Return type: number; implicit unit %.

Known inhibition at 10 µM results, listed for orientation:
{"columns": ["compound", "inhibition at 10 µM, %"],
 "data": [
  ["Cc1ncc(-c2ccnc(Nc3ccc(S(C)(=O)=O)cc3)n2)n1C(C)C [AZD5438]", 72.1],
  ["CCN1CCN(Cc2ccc(Nc3ncc(F)c(-c4cc(F)c5nc(C)n(C(C)C)c5c4)n3)nc2)CC1 [Abemaciclib]", 57.4],
  ["CCCCOc1c(C(=O)c2c(F)cc(C)cc2F)c[nH]c2nncc1-2 [BMS-265246]", 35.1],
  ["COc1cc(F)ccc1-c1ncnc(Nc2cccc(C[S@](C)(=N)=O)c2)n1 [Atuveciclib]", 4.5]
]}

Now for another entry.
Req: Find the recorded inhibition at 10 µM belonging to COc1cc(F)ccc1-c1cc(Nc2cc(CS(C)(=N)=O)ccn2)ncc1F (centres unmarked) [BAY-1251152] and report it.
Resp: 40

====

biological target: CDK2/Cyclin E1 (Homo sapiens); assay: NanoBRET live-cell target engagement, CDK2-NanoLuc/Cyclin E1 in HEK-293; assay type: binding; settings: CDK2/E1; average
readout: Inhibition at 10µM (%)

Known Inhibition at 10µM (%) results, listed for orientation:
{"columns": ["compound", "readout", "result"],
 "data": [
  ["CN1CCC(c2c(O)cc(O)c3c(=O)cc(-c4ccccc4Cl)oc23)C1CO (stereo not shown) [P276-00]", "Inhibition at 10µM (%)", "22.7%"],
  ["CCn1cnc2c(Nc3cccc(Cl)c3)nc(N[C@@H]3CCCC[C@@H]3N)nc21 [CGP74514A]", "Inhibition at 10µM (%)", "94.2%"],
  ["CC(C)c1c2cc(-c3ccnc(N[C@H]4CC[C@H](NC5CCOCC5)CC4)n3)ccc2nn1C [LY2857785]", "Inhibition at 10µM (%)", "85.9%"]
]}

Req: Find the recorded Inhibition at 10µM (%) belonging to CC(C)c1cnn2c(NCc3ccccc3-n3cccn3)nc(OC3CCCNC3)nc12 (stereo not shown) [LDC4297] and report it.
Resp: 88.3%
